test system: Human immunodeficiency virus 1; assay: Antiviral activity against HIV1 LAV1 infected in PHA-stimulated human PBMC assessed as reduction in RT activity after 6 days by micromethod-based beta scintillation counting; type: functional, organism-based; details: Human immunodeficiency virus 1, LAV1, 144 h
pEC50: −log10 of the molar value.
MEASURED ENDPOINT: pEC50

| COMPOUND | OBSERVED RESULT |
| --- | --- |
| C[C@@]1(F)[C@H](O)[C@@H](CO)O[C@@H]1n1cc(F)c2c(N)ncnc21 | < 4.00 |
| C[C@@]1(F)[C@H](O)[C@@H](CO)O[C@@H]1n1cc(Cl)c2c(N)ncnc21 | < 4.00 |
| C[C@@]1(F)[C@H](O)[C@@H](CO)O[C@@H]1n1cc(I)c2c(N)ncnc21 | < 4.00 |
| COC(=O)/C=C/c1cn([C@@H]2O[C@H](CO)[C@@H](O)[C@@]2(C)F)c2ncnc(N)c12 | < 4.00 |
| C[C@@]1(F)[C@H](O)[C@@H](CO)O[C@H]1n1ccc2c(N)nc(N)nc21 | < 4.00 |
| C[C@@]1(F)[C@H](O)[C@@H](CO)O[C@@H]1n1ccc2c(N)nc(N)nc21 | < 4.00 |
| C#Cc1cn([C@H]2O[C@H](CO)[C@@H](O)[C@@]2(C)F)c2ncnc(N)c12 | 4.02 |
| C[C@@]1(F)[C@H](O)[C@@H](CO)O[C@@H]1n1ccc2c(N)ncnc21 | < 4.00 |
| CCc1cn([C@@H]2O[C@H](CO)[C@@H](O)[C@@]2(C)F)c2ncnc(N)c12 | 4.72 |
| C[C@@]1(F)[C@H](O)[C@@H](CO)O[C@H]1n1cc(Br)c2c(N)ncnc21 | < 4.00 |
| CCOC(=O)[C@H](C)NP(=O)(OC[C@H]1O[C@@H](n2cc(I)c3c(N)ncnc32)[C@](C)(F)[C@@H]1O)Oc1ccccc1 (stereo partly specified) | 4.24 |
